- Tested on: SR leukemia
- assay_procedure: NCI tumour cell line growth inhibition, 48 h
measured_metric: TGI (µM)
Give just the numeric value; µM need not be written.

COc1cc(/C=C/[N+](=O)[O-])cc(OC)c1OC: 12.5

Q) Value lookup for TGI; key = Clc1ccccc1NN(Cc1ccncc1)c1ccccc1Cl
A) 32.2

Q) Value lookup for TGI; key = COc1cc2c(cc1C)NC(=O)/C2=C\c1ccncc1
A) 8.04

---

- System: SF-295 CNS
- assay_procedure: NCI tumour cell line growth inhibition, 48 h
Measured TGI, listed per entry.

Example results:
COc1cccc(NC(=O)CC(=O)NNCC(=O)Nc2nnc(-c3ccc(N(CCC#N)S(=O)(=O)c4ccccc4)cc3)s2)c1: > 100 µM
CCOP(=O)(OCC)C1(O)CC(n2cc(C)c(=O)[nH]c2=O)OC1CO (stereo not given): > 100 µM
Cc1ccc(N=C2SC(c3ccc(C)cc3)(c3ccc(C)cc3)c3ccccc32)cc1: > 100 µM

Q) Value lookup for TGI; key = CC1(C)CCCCCCCCCC(C)(CCCCCCCCCCCCO)C1=O (stereo not given)
A) 30.4 µM

Q) Value lookup for TGI; key = Cc1occ2c1C(=O)CC1C2[C@@H](O)CC2C(C)(C)CCC[C@]12C (stereo not given in full)
A) > 100 µM

Q) Value lookup for TGI; key = CCC1C(=O)OCc2c1cc1n(c2=O)C(CC)c2c-1nc1ccccc1c2Cl (stereo not given)
A) 66 µM

---

Measured TGI, listed per entry.
- System: LXFL 529 NSCLC
- assay_procedure: NCI tumour cell line growth inhibition, 48 h
Give just the numeric value; µM need not be written.

CCN(CC)CCCC(C)Nc1c(Sc2cnc3cc(Cl)ccc3c2NC(C)CCCN(CC)CC)cnc2cc(Cl)ccc12 (stereo not given): 3.38

# ---- query compound ----
Q) Value lookup for TGI; key = O=C(N/C(=C\c1cc(Cl)ccc1Cl)c1nc2ccc(Cl)cc2[nH]1)c1ccccc1
A) 28.1

---

- Test system: MOLT-4 leukemia
- assay_procedure: NCI tumour cell line growth inhibition, 48 h
measured_metric: TGI (µM)
Give just the numeric value; µM need not be written.

Cc1ccc(Sc2oc(-c3ccc(C)cc3)nc2[P+](c2ccccc2)(c2ccccc2)c2ccccc2)cc1: 1.11
COc1cc(OC)cc(-c2n/c(=C\c3c(O)[nH]c4ccc(Cl)cc34)cc3c2=Nc2ccccc2-3)c1: 4.74
O=C(Nc1cnc(C(F)(F)F)cn1)c1cc(Cl)ccc1O: 1.78

Q) Form field: TGI recorded for CCCCc1ccc(-n2sc3ncccc3c2=O)cc1 with MOLT-4 leukemia (enter value)
A) 57.7

---

- Test system: SF-539 CNS
- assay_procedure: NCI tumour cell line growth inhibition, 48 h
measured_metric: TGI

Example results:
O=c1c(O)cccn1CCCN(CCCn1cccc(O)c1=O)CCn1cccc(O)c1=O: > 100 µM
COc1ccc(Cc2nc3ccccc3s2)cc1OC: 31.2 µM
CC1(C)CCCCCCCCCC(C)(CCCCCCCCCCCCO)C1=O (stereo not given): 32.5 µM
CN(c1ccc(C#N)c(Cl)c1)C1CCC(NC(=O)c2ccc(N3CCN(C4CN(c5ccc6c(c5)C(=O)N(C5CCC(=O)NC5=O)C6=O)C4)CC3)cc2)CC1 (stereo not given): > 100 µM

Q) Form field: TGI recorded for O=C(O)c1cc(Cl)cc2c1NC1(N2)C(=O)Nc2ccccc21 (stereo not given) with SF-539 CNS (enter value)
A) > 100 µM

Q) Form field: TGI recorded for Cc1ccc(S(=O)(=O)c2ccc([N+](=O)[O-])o2)cc1 with SF-539 CNS (enter value)
A) 3.34 µM

Q) Form field: TGI recorded for COc1ccc2c(c1)C(=O)c1c-2c(N2CCNCC2)nc2ccccc12 with SF-539 CNS (enter value)
A) 12.7 µM
